Assay Readout: pIC50
Please express pIC50 as -log10 of the molar concentration.

pIC50 for Epidermal growth factor receptor (Homo sapiens) with input COc1ccc(C2N=C(C(N)=O)c3ncn(-c4ccc(F)cc4)c3N2)cc1OC (stereo unspecified) equals 6.21
